System: HMOX1
Run description: HMOX1 Protein Assay (immunostaining of HO-1 in NHLF cells, GE InCell 1000)
Assay type: cell-based
Condition description: Homo sapiens, fold change above DMSO treated cells, 5 μM compound, 16 h
Where a name gives a salt, the structure may show the parent alone.
Measured endpoint: fold induction at 5 µM
Just the number, please, no unit after it.

| Compound | fold induction at 5 µM |
| --- | --- |
| Cn1c(Nc2nc3ccc(OC(F)(F)F)cc3s2)nc2cc(C(=O)NCCc3cccc(O)c3)ccc21 [Example 252] | 13.1 |
| COc1cc2c(cc1C(=O)NCC(C)O)nc(Nc1nc3ccc(OC(F)(F)F)cc3s1)n2C (stereo not shown) [Example 68] | 21.1 |
| Cn1c(Nc2nc3ccc(Cl)cc3s2)nc2cc(C(=O)N[C@@H]3CCN(CCO)C3)ccc21 [Example 292] | 39 |

IN: I'm curious: which fold induction at 5 µM was measured for Cn1c(Nc2nc3ccc(Cl)cc3s2)nc2cc(C(=O)O)ccc21 [Example 29] tested on HMOX1?
OUT: 13.9

IN: I'm curious: which fold induction at 5 µM was measured for CN1CCC(NC(=O)CNC(=O)c2ccc3c(c2)nc(Nc2nc4ccc(Cl)cc4s2)n3C)CC1 [Example 386] tested on HMOX1?
OUT: 58.3

IN: I'm curious: which fold induction at 5 µM was measured for COC(=O)CNC(=O)c1ccc2c(c1)nc(Nc1nc3ccc(OC(F)(F)F)cc3s1)n2C [Example 79] tested on HMOX1?
OUT: 17.6

IN: I'm curious: which fold induction at 5 µM was measured for Cn1c(Nc2nc3ccc(Cl)cc3s2)nc2cc(C(=O)NCCN3CCCC(F)(F)C3)ccc21 [Example 336] tested on HMOX1?
OUT: 16.1

IN: I'm curious: which fold induction at 5 µM was measured for CN(C)CC(=O)N1CCC(CNC(=O)c2ccc3c(c2)nc(Nc2nc4ccc(Cl)cc4s2)n3C)CC1 [Example 314] tested on HMOX1?
OUT: 79.7

IN: I'm curious: which fold induction at 5 µM was measured for Cn1c(Nc2nc3cc(F)ccc3s2)nc2cc(C(=O)O)ccc21 [Example 117] tested on HMOX1?
OUT: 28.8

IN: I'm curious: which fold induction at 5 µM was measured for COC(=O)c1ccc2c(c1)nc(Nc1nc3ccc(F)cc3s1)n2C [Example 112] tested on HMOX1?
OUT: 17.5

IN: I'm curious: which fold induction at 5 µM was measured for Cn1c(Nc2nc3ccc(Cl)cc3s2)nc2cc(C(=O)NCCN3CCC(F)(F)CC3)ccc21 [Example 335] tested on HMOX1?
OUT: 18.9

IN: I'm curious: which fold induction at 5 µM was measured for CNCC1CCCN(C(=O)CNC(=O)c2ccc3c(c2)nc(Nc2nc4ccc(Cl)cc4s2)n3C)C1 (stereo not shown) [Example 460, hydrochloride] tested on HMOX1?
OUT: 27.5

IN: I'm curious: which fold induction at 5 µM was measured for C[C@H](NC(=O)c1ccc2c(c1)nc(Nc1nc3ccc(OC(F)(F)F)cc3s1)n2C)C(=O)N(C)C [Example 149] tested on HMOX1?
OUT: 38.7

IN: I'm curious: which fold induction at 5 µM was measured for Cn1c(Nc2nc3ccc(Cl)cc3s2)nc2cc(C(=O)NCC(=O)N3CCC(O)CC3)ccc21 [Example 436] tested on HMOX1?
OUT: 29.3

IN: I'm curious: which fold induction at 5 µM was measured for CCN(CC)c1cc2c(cc1C(=O)NCC(=O)N(C)C)nc(Nc1nc3ccc(OC(F)(F)F)cc3s1)n2C [Example 361] tested on HMOX1?
OUT: 28.8

IN: I'm curious: which fold induction at 5 µM was measured for COCCOCCNC(=O)c1ccc2c(c1)nc(Nc1nc3ccc(Cl)cc3s1)n2C [Example 261] tested on HMOX1?
OUT: 35.7
